molecular target: HLA-DR2 (DRB1*1501) on antigen presenting cells (MGAR, L466) (human); test: cell-based or functional assay
Flag rule - Inhibition of IL-2 production (%), Hy1B less than 20% flags met; the remaining entries get not met.

# BINDER, ASSIGNED LABEL
data = [
    ("AAEEYKAYAAAAAAA [synthetic peptide #61]", "not met"),
    ("AAEKYAEYKAAAAAA [synthetic peptide #104]", "not met"),
    ("AKKEYAAAAAAAAAA [synthetic peptide #37]", "met"),
    ("AAKAYEAYAAAAAAA [synthetic peptide #65]", "not met"),
    ("EKKAYAAAAAAAAAA [synthetic peptide #41]", "met"),
    ("AAEAYKAYKAAAAAA [synthetic peptide #94]", "not met"),
    ("AAKAYEAYKAAAAAA [synthetic peptide #93]", "not met"),
    ("AAEKVAAAAAAAAAA [synthetic peptide #114]", "not met"),
    ("AKAEYAAYKAAAAAA [synthetic peptide #81]", "not met"),
    ("EAEAYAAYKAAAAAA [synthetic peptide #88]", "not met"),
    ("EEAAYAAYKAAAAAA [synthetic peptide #90]", "not met"),
    ("AKEEYAAAAAAAAAA [synthetic peptide #38]", "met"),
    ("KEKAAAAYAAAAAAA [synthetic peptide #47]", "met"),
    ("EAKAYEAYKAAAAAA [synthetic peptide #95]", "not met"),
    ("AKAAAAEYAAAAAAA [synthetic peptide #51]", "met"),
    ("EEKAYAAAAAAAAAA [synthetic peptide #105]", "not met"),
    ("EKAAYAAAAAAAAAA [synthetic peptide #44]", "met"),
    ("AAEKYEAYAAAAAAA [synthetic peptide #69]", "not met"),
    ("EAAKYAAYKAAAAAA [synthetic peptide #85]", "not met"),
    ("AKEAAAAYAAAAAAA [synthetic peptide #45]", "met"),
    ("EAKAYEYAKAAAAAA [synthetic peptide #113]", "not met"),
    ("AEKAAAAYAAAAAAA [synthetic peptide #49]", "not met"),
    ("EAEKYAAYAAAAAAA [synthetic peptide #71]", "not met"),
    ("EKAAYAAYKAAAAAA [synthetic peptide #87]", "not met"),
    ("AKEEYAAYAAAAAAA [synthetic peptide #62]", "not met"),
    ("AEKKYAAYAAAAAAA [synthetic peptide #54]", "not met"),
    ("AKEAYAAAAAAAAAA [synthetic peptide #39]", "not met"),
    ("AEAKYAAYAAAAAAA [synthetic peptide #60]", "met"),
    ("AKKAAEAYAAAAAAA [synthetic peptide #50]", "not met"),
]
